Value source: ChEMBL document CHEMBL1141668

Tested on: Eimeria maxima
Assay Remarks: Anticoccidial activity against Eimeria maxima in chickens assessed as reduction of oocysts at 12.5 ppm measured after 8 days by ExMAC assay relative to untreated control
Format: functional
Set-up: scale not given: the % may be the effect or the level left
Readout Type: Activity

{"Compound": "CN(C)CC(F)c1ccn2c(-c3ccnc(N)n3)c(-c3ccc(F)cc3)nc2c1 (stereo unspecified)", "Reported Result": "100%"}
{"Compound": "CN1CCN(c2ccn3c(-c4ccnc(N)n4)c(-c4ccc(F)cc4)nc3c2)CC1", "Reported Result": "<50%"}

State the recorded Activity for this entry: "Nc1nccc(-c2c(-c3ccc(F)cc3)nc3cc(C4CCN(CCCO)CC4)ccn23)n1"
<50%

Recorded Activity of "CN1CCC(c2ccn3c(-c4ccnc(N)n4)c(-c4ccc(F)cc4)nc3c2)CC1" , please.
100%
